- assay.procedure: chemical genetic growth profiling, strain panel (AID 1159580);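 also: tested at 20 µM; growth read once vehicle control cultures reached saturation at 30 °C; 1 = growth at the plate median or of vehicle wells; lower values mean less growth of the strain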
- run.parameters: S. cerevisiae deletion strains, growth OD, locus YMR058W, strain fet3, active compounds read low
About 2,000 (36%) of roughly 5,500 compounds were called active. Inconclusive results (about 18%) are left out. This is one part of the list.
outcome.measure: normalized growth
Could you respond with only the numeric value?

C/C=C1\[C@H]2C=C(C)C[C@]1(N)c1ccc(=O)[nH]c1C2; 1.02
CC(CC(=O)C(O)C(C)(C)O)C1C(=O)CC2(C)C3=CCC4C(C)(C)C(OC5OCC(O)C(O)C5O)CCC45CC35C(O)CC12C (stereo not drawn); 1.01

Which normalized growth is reported for this compound? C#C[C@]1(O)CCC2C3CCC4=CC(=O)CC[C@@H]4C3CC[C@@]21C (stereo partly drawn)
0.965

For the compound shown here, CCOC(=O)OC(C)OC(=O)C1N2C(=O)C(NC(=O)[C@H](N)c3ccccc3)C2SC1(C)C (stereo partly drawn) , give the reported normalized growth.
0.977

Quick one: normalized growth of CC(=O)O[C@H]1CC[C@@]2(C)C(CC[C@]3(C)C2CC=C2C4CC(C)(C)CC[C@]4(C)CC[C@]23C)C1(C)C (stereo partly drawn) ?
0.996

# query: normalized growth of entry C[C@@H]1OC(O[C@H]2C(O[C@H]3CC[C@@]4(C)C(CC[C@]5(C)C4CC=C4C6CC(C)(C)CC[C@]6(C(=O)O)CC[C@]45C)[C@]3(C)CO)OC[C@H](O)[C@@H]2O)[C@H](O)[C@H](O)[C@H]1O (stereo partly drawn)
0.0577

normalized growth for CC(=O)O[C@@H]1CC[C@@]2(C)C(CC[C@]3(C)C2CC=C2C4CC(C)(C)CC[C@]4(C(=O)O)CC[C@]23C)C1(C)C (stereo partly drawn) ?
0.655

If you can, please state the reported normalized growth value of C[C@]12CCC(=O)C=C1CCC1C2[C@@H](O)C[C@@]2(C)C1CC[C@]2(O)C(=O)CO (stereo partly drawn) .
1.01

Values compiled from PubChem BioAssay AID1159580.
